Overview of reported interaction score across a group of binders:
target-of-assay: T1, 4H2935-AA
T1 chain: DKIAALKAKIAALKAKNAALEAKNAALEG
assay-comment: two-hybrid library CCmax;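 note: natural log of median RNA to DNA barcode read ratio; higher means stronger binding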
conditions-used: mean of both orientations

Please review the entries below; each comes with its answer.
DKIAALKAENAALEAKIAALEAKIAALKG [4H2726-AA]; -1.45
DKIAALKAEIAALEAKIAALKAKNAALKG [4H2608-AA]; -0.712
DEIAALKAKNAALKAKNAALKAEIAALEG [4H1017-AA]; -3.83

Proceed to the following item.
Req: Find the measured interaction score of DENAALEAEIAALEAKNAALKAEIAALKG [4H1082-AA] and report it.
Resp: -1.5
